Quick record of pKi values for Adenosine receptor A2a (Homo sapiens).
Please express pKi as -log10 of the molar concentration.

Kindly note the recorded pKi for c1ccc(Nc2nc3ncnc-3c(NC3CCCCC3)[nH]2)cc1 , which is 5.77

Kindly note the recorded pKi for CN(C)c1ccc(Nc2nc(NC3CCCCC3)c3[nH]cnc3n2)cc1 , which is 5.21

---

- tested_target: Adenosine receptor A2a (Homo sapiens)
- Sequence (P29274 whole entry): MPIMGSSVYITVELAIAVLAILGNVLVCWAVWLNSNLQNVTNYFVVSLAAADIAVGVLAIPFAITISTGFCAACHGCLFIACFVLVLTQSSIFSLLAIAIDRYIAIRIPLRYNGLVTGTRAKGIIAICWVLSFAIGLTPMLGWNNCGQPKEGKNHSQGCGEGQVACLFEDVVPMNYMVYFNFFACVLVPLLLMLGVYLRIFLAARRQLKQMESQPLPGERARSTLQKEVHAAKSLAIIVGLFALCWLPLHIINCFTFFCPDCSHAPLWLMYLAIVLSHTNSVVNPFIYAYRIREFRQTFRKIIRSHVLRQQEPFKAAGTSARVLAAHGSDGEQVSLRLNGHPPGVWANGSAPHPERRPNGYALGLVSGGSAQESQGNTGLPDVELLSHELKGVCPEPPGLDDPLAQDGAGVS
- method: Percent inhibition of [3H]-ZM241385 binding to human adenosine A2A receptor expressed in CHO cells at 10 uM
Please note: label 1 applies when inhibition is 20% or greater, and label 0 applies otherwise.

input: Please indicate if the recorded inhibition for c1nc2nc(Nc3ccc(N4CCOCC4)cc3)[nH]c(NC3CCC3)c-2n1 meets or exceeds 20%.
output: label 0

input: Please indicate if the recorded inhibition for c1nc2nc(Nc3ccc(N4CCOCC4)cc3)[nH]c(NC3CCCCCCC3)c-2n1 meets or exceeds 20%.
output: label 0

input: Please indicate if the recorded inhibition for c1ccc(Oc2nc(NC3CC4CCC3C4)c3nc[nH]c3n2)cc1 (stereo unspecified) meets or exceeds 20%.
output: label 1

input: Please indicate if the recorded inhibition for CCNc1[nH]c(Nc2ccc(N3CCOCC3)cc2)nc2ncnc1-2 meets or exceeds 20%.
output: label 0

input: Please indicate if the recorded inhibition for c1ccc2cc(Nc3nc4ncnc-4c(NC4CCCCC4)[nH]3)ccc2c1 meets or exceeds 20%.
output: label 1

input: Please indicate if the recorded inhibition for CCNc1nc(NC2CCCCC2)c2[nH]cnc2n1 meets or exceeds 20%.
output: label 1

---

- tested_target: Adenosine receptor A3 (Homo sapiens, UniProt P0DMS8)
- Sequence (P0DMS8 whole entry): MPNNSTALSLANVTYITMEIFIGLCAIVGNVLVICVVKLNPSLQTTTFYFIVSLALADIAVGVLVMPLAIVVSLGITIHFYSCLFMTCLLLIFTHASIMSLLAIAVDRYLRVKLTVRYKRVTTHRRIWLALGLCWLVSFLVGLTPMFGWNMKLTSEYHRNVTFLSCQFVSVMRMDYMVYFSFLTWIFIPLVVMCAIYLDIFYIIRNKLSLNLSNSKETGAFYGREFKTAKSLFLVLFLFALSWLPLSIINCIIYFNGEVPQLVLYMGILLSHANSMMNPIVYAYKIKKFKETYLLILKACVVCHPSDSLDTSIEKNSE
quantity_kind: pKi
Please express pKi as -log10 of the molar concentration.

Kindly note the recorded pKi for c1ccc(Nc2nc3ncnc-3c(NC3CCCCC3)[nH]2)cc1 , which is 7.29

Kindly note the recorded pKi for Cn1cnc2c(NC3CCCCCC3)nc(Nc3ccccc3)nc21 , which is 6.02

Kindly note the recorded pKi for c1nc2nc(Nc3ccc(N4CCOCC4)cc3)nc(NC3CCCCC3)c2[nH]1 , which is 6.18

Kindly note the recorded pKi for c1nc2nc(Nc3ccc(N4CCOCC4)cc3)nc(NC3CC4CCC3C4)c2[nH]1 (stereo not given) , which is 6.91

Kindly note the recorded pKi for Cn1cnc2c(NC3CCCCC3)nc(Nc3ccccc3)nc21 , which is 7.15

---

- tested_target: Adenosine receptor A1 (Homo sapiens)
- Sequence (P30542 whole entry): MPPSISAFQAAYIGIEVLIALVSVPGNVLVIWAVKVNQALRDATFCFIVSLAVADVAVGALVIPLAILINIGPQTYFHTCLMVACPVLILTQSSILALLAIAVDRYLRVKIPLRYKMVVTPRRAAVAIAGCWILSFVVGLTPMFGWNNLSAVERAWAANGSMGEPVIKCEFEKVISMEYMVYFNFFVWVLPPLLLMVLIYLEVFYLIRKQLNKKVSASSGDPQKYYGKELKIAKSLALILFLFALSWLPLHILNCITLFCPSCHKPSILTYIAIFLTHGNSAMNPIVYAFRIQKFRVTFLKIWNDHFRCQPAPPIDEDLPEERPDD
- method: Binding affinity for human adenosine A1 receptor
quantity_kind: pKi
Please express pKi as -log10 of the molar concentration.

Kindly note the recorded pKi for CC(C)N(C)c1nc2c(NC3CC4CC3CC4O)ncnc2n1C (stereo unspecified) , which is 8.77

---

- tested_target: UniProt:P30542
- Type: cell-based, CHO
Record form. Attribute: pKi. Fill in for each entry.
Please express pKi as -log10 of the molar concentration.

Kindly note the recorded pKi for CN(C)c1ccc(Nc2nc(NC3CCCCC3)c3[nH]cnc3n2)cc1 , which is 5.41

Kindly note the recorded pKi for c1ccc(Nc2nc(NC3CCCCCC3)c3[nH]cnc3n2)cc1 , which is 5.76

Kindly note the recorded pKi for Cn1cnc2c(NC3CCCCCC3)nc(Nc3ccccc3)nc21 , which is 5.71

Kindly note the recorded pKi for Cn1cnc2c(NC3CCCCC3)nc(Nc3ccccc3)nc21 , which is 5.73

Kindly note the recorded pKi for c1ccc(Oc2nc(NC3CC4CCC3C4)c3nc[nH]c3n2)cc1 (stereo unspecified) , which is 5.83

---

Record form. Attribute: pKi. Fill in for each entry.
Protein target, amino acids: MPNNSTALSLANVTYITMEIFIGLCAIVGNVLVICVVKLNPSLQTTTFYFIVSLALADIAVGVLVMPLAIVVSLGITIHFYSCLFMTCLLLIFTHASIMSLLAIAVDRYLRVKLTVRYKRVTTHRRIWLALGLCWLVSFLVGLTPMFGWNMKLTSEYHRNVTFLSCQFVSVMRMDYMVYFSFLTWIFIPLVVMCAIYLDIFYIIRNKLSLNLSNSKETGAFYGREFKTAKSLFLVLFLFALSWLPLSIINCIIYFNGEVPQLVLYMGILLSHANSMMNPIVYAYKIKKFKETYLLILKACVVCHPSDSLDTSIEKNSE
Please express pKi as -log10 of the molar concentration.

Kindly note the recorded pKi for c1ccc(Nc2nc(NC3CCCCCC3)c3[nH]cnc3n2)cc1 , which is 7.38

Kindly note the recorded pKi for c1nc2nc(Nc3ccc(N4CCOCC4)cc3)[nH]c(NC3CCCCCC3)c-2n1 , which is 6.38

Kindly note the recorded pKi for c1ccc(Oc2nc(NC3CC4CCC3C4)c3nc[nH]c3n2)cc1 (stereo unspecified) , which is 7.13

Kindly note the recorded pKi for c1ccc(-c2ccc(Nc3nc4ncnc-4c(NC4CCCCC4)[nH]3)cc2)cc1 , which is 5.27

Kindly note the recorded pKi for CCNc1[nH]c(Nc2ccc(N3CCOCC3)cc2)nc2ncnc1-2 , which is 5.82

Kindly note the recorded pKi for CCNc1nc(NC2CCCCC2)c2[nH]cnc2n1 , which is 5.95

---

- tested_target: Adenosine receptor A1 (Homo sapiens) (UniProt P30542)
- method: Percent inhibition of [3H]DPCPX binding to human adenosine A1 receptor expressed in CHO cells at 10 uM
- Assay type: cell-based
Record form. Attribute: inhibition. Fill in for each entry.
Express the result in % but write the number alone.

Tested system Adenosine receptor A1 (Homo sapiens) (UniProt P30542); inhibition recorded for c1nc2nc(Nc3ccc(N4CCOCC4)cc3)[nH]c(NC3CCC3)c-2n1 was 29

Tested system Adenosine receptor A1 (Homo sapiens) (UniProt P30542); inhibition recorded for c1nc2nc(Nc3ccc(N4CCOCC4)cc3)[nH]c(NC3CCCCCCC3)c-2n1 was 0

Tested system Adenosine receptor A1 (Homo sapiens) (UniProt P30542); inhibition recorded for c1nc2nc(Nc3ccc(N4CCOCC4)cc3)[nH]c(NC3CCCCCC3)c-2n1 was 6

Tested system Adenosine receptor A1 (Homo sapiens) (UniProt P30542); inhibition recorded for CCNc1[nH]c(Nc2ccc(N3CCOCC3)cc2)nc2ncnc1-2 was 23

Tested system Adenosine receptor A1 (Homo sapiens) (UniProt P30542); inhibition recorded for CCNc1nc(NC2CCCCC2)c2[nH]cnc2n1 was 51

Tested system Adenosine receptor A1 (Homo sapiens) (UniProt P30542); inhibition recorded for c1ccc(-c2ccc(Nc3nc4ncnc-4c(NC4CCCCC4)[nH]3)cc2)cc1 was 14

Tested system Adenosine receptor A1 (Homo sapiens) (UniProt P30542); inhibition recorded for c1nc2nc(Nc3ccc(N4CCOCC4)cc3)[nH]c(NC3CCCC3)c-2n1 was 22

Tested system Adenosine receptor A1 (Homo sapiens) (UniProt P30542); inhibition recorded for c1nc2nc(Nc3ccc(N4CCOCC4)cc3)nc(NC3CC3)c2[nH]1 was 22

Tested system Adenosine receptor A1 (Homo sapiens) (UniProt P30542); inhibition recorded for c1ccc2cc(Nc3nc4ncnc-4c(NC4CCCCC4)[nH]3)ccc2c1 was 39

Tested system Adenosine receptor A1 (Homo sapiens) (UniProt P30542); inhibition recorded for c1ccc(CNc2nc(NC3CCCCC3)c3[nH]cnc3n2)cc1 was 42

Tested system Adenosine receptor A1 (Homo sapiens) (UniProt P30542); inhibition recorded for c1nc2c(NC3CCCCC3)nc(Nc3ccc(N4CCCCC4)cc3)nc2[nH]1 was 16

---

- tested_target: Adenosine receptor A1 (Homo sapiens)
- Sequence (P30542 whole entry): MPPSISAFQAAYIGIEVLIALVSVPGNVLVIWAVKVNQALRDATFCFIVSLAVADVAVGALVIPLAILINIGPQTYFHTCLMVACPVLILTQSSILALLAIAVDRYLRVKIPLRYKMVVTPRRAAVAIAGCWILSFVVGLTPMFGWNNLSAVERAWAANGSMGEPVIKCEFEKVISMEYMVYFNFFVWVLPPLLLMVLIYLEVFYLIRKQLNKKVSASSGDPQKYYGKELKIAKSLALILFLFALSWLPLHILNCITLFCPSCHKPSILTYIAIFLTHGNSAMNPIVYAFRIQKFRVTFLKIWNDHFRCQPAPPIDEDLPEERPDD
- method: Percent inhibition of [3H]-DPCPX binding to human adenosine A1 receptor expressed in CHO cells at 10 uM
- Assay type: cell-based
quantity_kind: Ki (µM)
Express the result in µM but write the number alone.

Tested system Adenosine receptor A1 (Homo sapiens); Ki recorded for c1ccc(Nc2nc3ncnc-3c(NC3CCCCCCC3)[nH]2)cc1 was 4.47
